Reference source: PubChem BioAssay (NCI)

Tested on: HCT-116 colon
Assay: NCI-60 one-dose screen, 48 h (100 = growth as untreated, 0 = no growth, -100 = all killed)
Conditions: 10 µM
This is part of a sample that, as a whole, favours compounds with a hit. Of some 83,000 tested, about 20% had one in any assay.
Measurement kind: growth (%)
Report the value in % with no unit label.

Exercise: Annotate the compound Cc1ccc(/C(C#N)=C/c2ccc3c(c2)OCO3)cc1 with its measured growth.
Solution: 72.8

Exercise: Annotate the compound NC(C(=O)O)c1ccc([N+](=O)[O-])cc1 (centres undefined) with its measured growth.
Solution: 105

Exercise: Annotate the compound CCC/C=C(/C(C)=O)C(=O)OCC with its measured growth.
Solution: 109

Exercise: Annotate the compound CC(=O)OCC1=CC2OC(=O)C3=COC(OC4OC(CO)C(O)C(O)C4O)C1C32 (centres undefined) with its measured growth.
Solution: 123

Exercise: Annotate the compound CN(C)C(=O)Oc1cccc([N+](C)(C)C)c1 with its measured growth.
Solution: 109

Exercise: Annotate the compound CC(C)NC(=O)OCc1c(COC(=O)NC(C)C)c(-c2ccc(Cl)c(Cl)c2)n2c1SCC2 with its measured growth.
Solution: 29.9

Exercise: Annotate the compound O=C1N(C[P+](c2ccccc2)(c2ccccc2)c2ccccc2)CCCN1C[P+](c1ccccc1)(c1ccccc1)c1ccccc1 with its measured growth.
Solution: 97

Exercise: Annotate the compound CC(C)OC(=O)c1cc(NC(=S)OC(C)C)ccc1Cl with its measured growth.
Solution: 72.2

Exercise: Annotate the compound CC(=O)OC1CC2C(C)(C)OC3CC(=O)OCC32C2CCC3(C)C(=CCC3c3ccoc3)C12C (centres undefined) with its measured growth.
Solution: 106

Exercise: Annotate the compound O=C(c1ccccc1)C1CCC1 with its measured growth.
Solution: 106

Exercise: Annotate the compound CC(=O)c1cc2c(cc1F)C(C)(C)CCC2(C)C with its measured growth.
Solution: 94.4

Exercise: Annotate the compound COc1cccc(Sc2ccc([N+](=O)[O-])c3no[n+]([O-])c23)c1 with its measured growth.
Solution: -91.4

Exercise: Annotate the compound O=C1c2ccccc2C(=O)N1OCc1ccccc1 with its measured growth.
Solution: 99.8

Exercise: Annotate the compound CCC(O)CC(CC)CO (centres undefined) with its measured growth.
Solution: 100

Exercise: Annotate the compound Cc1cc(O)ccc1O with its measured growth.
Solution: 96.4

Exercise: Annotate the compound O=[N+]([O-])c1ccc(O)c(S(=O)(=O)O)c1 with its measured growth.
Solution: 101

Exercise: Annotate the compound COC(=O)C(C)Oc1ccc(OC#N)cc1 (centres undefined) with its measured growth.
Solution: 108

Exercise: Annotate the compound S=c1[nH]ccn1-c1ccccc1Cl with its measured growth.
Solution: 107

Exercise: Annotate the compound OC1OC(COC(c2ccccc2)(c2ccccc2)c2ccccc2)C(O)C(O)C1O (centres undefined) with its measured growth.
Solution: 90.7

Exercise: Annotate the compound Clc1ccc(-c2nnc(-c3cccc4ccccc34)o2)cc1 with its measured growth.
Solution: 93.9

Exercise: Annotate the compound CNc1nc(NC)c2cn[nH]c2n1 with its measured growth.
Solution: 99.4

Exercise: Annotate the compound CO[C@H]1C[C@@H]2CC[C@@H](C)[C@@](O)(O2)C(=O)C(=O)N2CCCC[C@H]2C(=O)O[C@H]([C@H](C)C[C@@H]2CC[C@@H](O)[C@H](OC)C2)CC(=O)[C@H](C)C=C(C)[C@@H](O)[C@@H](OC)C(=O)[C@H](C)C[C@H](C)/C=C/C=C/C=C1C with its measured growth.
Solution: 31.1

Exercise: Annotate the compound COS(=O)(=O)c1ccc(Br)cc1 with its measured growth.
Solution: 93.9

Exercise: Annotate the compound Cc1cc(C)cc(NCCC#N)c1 with its measured growth.
Solution: 106
